# IC50 values compiled below
test_target: USP7 (Homo sapiens)
Sequence (Q93009 whole entry): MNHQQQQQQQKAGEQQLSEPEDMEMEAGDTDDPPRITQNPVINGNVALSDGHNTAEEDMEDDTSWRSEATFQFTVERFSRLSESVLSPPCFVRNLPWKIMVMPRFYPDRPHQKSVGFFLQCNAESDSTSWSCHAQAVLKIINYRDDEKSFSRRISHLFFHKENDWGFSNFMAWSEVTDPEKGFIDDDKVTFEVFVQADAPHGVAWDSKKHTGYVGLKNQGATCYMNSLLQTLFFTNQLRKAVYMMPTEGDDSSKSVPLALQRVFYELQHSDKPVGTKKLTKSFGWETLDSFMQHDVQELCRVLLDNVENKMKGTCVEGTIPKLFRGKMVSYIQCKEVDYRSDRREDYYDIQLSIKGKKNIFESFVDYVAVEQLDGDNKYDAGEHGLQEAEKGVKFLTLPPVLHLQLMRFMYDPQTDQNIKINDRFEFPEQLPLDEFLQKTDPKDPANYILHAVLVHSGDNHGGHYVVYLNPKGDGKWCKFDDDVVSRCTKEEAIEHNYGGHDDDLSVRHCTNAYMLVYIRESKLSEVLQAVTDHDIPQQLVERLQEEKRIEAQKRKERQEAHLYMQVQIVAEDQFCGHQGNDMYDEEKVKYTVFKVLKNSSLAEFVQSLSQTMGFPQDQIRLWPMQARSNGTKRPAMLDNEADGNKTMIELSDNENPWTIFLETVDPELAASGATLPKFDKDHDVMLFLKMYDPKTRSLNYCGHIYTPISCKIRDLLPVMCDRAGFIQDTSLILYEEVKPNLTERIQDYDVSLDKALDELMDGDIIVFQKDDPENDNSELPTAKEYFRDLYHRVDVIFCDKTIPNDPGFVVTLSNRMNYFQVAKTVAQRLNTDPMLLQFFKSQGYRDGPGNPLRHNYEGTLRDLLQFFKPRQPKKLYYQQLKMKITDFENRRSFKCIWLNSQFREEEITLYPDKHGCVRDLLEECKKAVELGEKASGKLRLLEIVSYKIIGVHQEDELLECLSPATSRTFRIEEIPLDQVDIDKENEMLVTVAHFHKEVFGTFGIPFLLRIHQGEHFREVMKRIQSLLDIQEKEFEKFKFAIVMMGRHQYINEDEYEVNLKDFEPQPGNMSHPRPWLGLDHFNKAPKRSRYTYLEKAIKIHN
experiment_summary: Ub-Rho cleavage assay
Type: biochemical
settings: Ub-Rho substrate, recombinant USP7; read-out: Ub (Rho) USP7.1 (IC50)
measured_attribute: IC50

compound: CN1CCCn2nc(C(=O)Nc3nc4ccc(N(CC5CCNC5)S(=O)(=O)c5cccs5)cc4s3)cc2C1 (centres unmarked) [U115]
test_target: USP7 (Homo sapiens)
recorded_value: > 100000 nM

compound: C[C@H](CC(=O)N1CCC(O)(Cn2cnc3c(-c4ccc(CNC(=O)CCCCCCCNC(=O)OC(C)(C)C)cc4)n(C)nc3c2=O)CC1)c1ccccc1 [U133]
test_target: USP7 (Homo sapiens)
recorded_value: < 1000 nM

compound: C[C@H](CC(=O)N1CCC(O)(Cn2cnc3c(-c4ccc(CNC(=O)OC(C)(C)C)cc4)n(C)nc3c2=O)CC1)c1ccccc1 [U14]
test_target: USP7 (Homo sapiens)
recorded_value: < 1000 nM

compound: Cc1cc(Cl)cc(-c2ccnc3cc(CN4C(=O)CCC4=O)sc23)c1OC1CCN(C(=O)CCOCCOCCOCCNC(=O)OC(C)(C)C)CC1 [U34]
test_target: USP7 (Homo sapiens)
recorded_value: 1000 to 100000 nM

compound: CCc1c(-c2ccc3[nH]ncc3c2)cnc(N)c1-c1ccc(O)cc1 [U8]
test_target: USP7 (Homo sapiens)
recorded_value: 1000 to 100000 nM

====

test_target: USP7 CD + UBL 1-5 (Homo sapiens)
Construct: USP7 CD +
experiment_summary: Surface plasmon resonance assay (SPR)
Format: binding
settings: steady-state KD; read-out: SPR USP7 CD + UBL 1-5 (KD_ss)
pKd: −log10 of the molar value.

compound: CCc1c(-c2ccc(O)cc2)cnc(NCCN=[N+]=[N-])c1-c1ccc(C(=O)NC)nc1
test_target: USP7 CD + UBL 1-5 (Homo sapiens)
pKd: > 6.00
//
compound: CCC(=O)N1CCC(C(=O)Nc2nc3ccc(NS(=O)(=O)c4cccs4)cc3s2)C1 (stereo not drawn)
test_target: USP7 CD + UBL 1-5 (Homo sapiens)
pKd: 4.00 to 6.00
//
compound: Cn1ccc(C(=O)Nc2nc3ccc(NS(=O)(=O)c4cccs4)cc3s2)n1
test_target: USP7 CD + UBL 1-5 (Homo sapiens)
pKd: 4.00 to 6.00

====

# Kd values compiled below
test_target: USP7 CD + UBL 1-5 (Homo sapiens, UniProt Q93009)
Construct: USP7 CD +
Sequence (Q93009 208-1102 limits assumed): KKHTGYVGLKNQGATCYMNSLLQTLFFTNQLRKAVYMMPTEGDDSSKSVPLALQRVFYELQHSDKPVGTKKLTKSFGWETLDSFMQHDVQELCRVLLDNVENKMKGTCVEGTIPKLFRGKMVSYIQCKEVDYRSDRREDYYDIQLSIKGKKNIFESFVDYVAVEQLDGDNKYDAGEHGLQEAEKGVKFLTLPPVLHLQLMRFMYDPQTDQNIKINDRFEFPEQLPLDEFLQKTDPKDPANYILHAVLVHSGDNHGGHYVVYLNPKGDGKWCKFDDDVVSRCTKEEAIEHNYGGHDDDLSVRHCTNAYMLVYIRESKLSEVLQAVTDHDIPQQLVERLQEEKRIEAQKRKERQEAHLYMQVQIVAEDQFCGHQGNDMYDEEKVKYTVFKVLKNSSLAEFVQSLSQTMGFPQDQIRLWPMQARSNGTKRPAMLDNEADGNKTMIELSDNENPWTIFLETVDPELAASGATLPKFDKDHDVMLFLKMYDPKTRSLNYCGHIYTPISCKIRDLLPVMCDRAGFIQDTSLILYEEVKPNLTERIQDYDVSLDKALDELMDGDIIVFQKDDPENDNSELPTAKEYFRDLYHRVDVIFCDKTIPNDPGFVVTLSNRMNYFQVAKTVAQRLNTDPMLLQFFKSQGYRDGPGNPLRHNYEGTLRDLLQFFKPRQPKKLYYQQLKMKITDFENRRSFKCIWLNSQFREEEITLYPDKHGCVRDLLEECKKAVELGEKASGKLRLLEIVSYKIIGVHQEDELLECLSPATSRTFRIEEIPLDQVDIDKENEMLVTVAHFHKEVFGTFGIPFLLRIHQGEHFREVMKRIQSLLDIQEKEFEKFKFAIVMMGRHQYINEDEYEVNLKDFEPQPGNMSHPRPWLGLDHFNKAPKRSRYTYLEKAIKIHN
experiment_summary: Surface plasmon resonance assay (SPR)
Assay type: binding
settings: kinetic KD; read-out: SPR USP7 CD + UBL 1-5 (KD_kinetic)

molecule: C[C@H](CC(=O)N1CCC(O)(Cn2cnc3c(-c4ccc(CNC(=O)CCCCNC(=O)OC(C)(C)C)cc4)n(C)nc3c2=O)CC1)c1ccccc1 [U131]
Kd: < 1000 nM

molecule: Cc1cc(Cl)cc(-c2ccnc3cc(CN4C(=O)CCC4=O)sc23)c1OC1CCN(CCCNC(=O)OC(C)(C)C)CC1 [U9]
Kd: < 1000 nM

molecule: C[C@H](CC(=O)N1CCC(O)(Cn2cnc3c(-c4ccc(CNC(=O)OC(C)(C)C)cc4)n(C)nc3c2=O)CC1)c1ccccc1 [U14]
Kd: < 1000 nM

====

# pKd values compiled below
test_target: USP7 CD + UBL 1-5 (Homo sapiens, UniProt Q93009)
Construct: USP7 CD +
experiment_summary: Surface plasmon resonance assay (SPR)
Assay type: binding
settings: steady-state KD; read-out: SPR USP7 CD + UBL 1-5 (KD_ss)
pKd: −log10 of the molar value.

molecule: CCc1c(-c2ccc(C(=O)NCCCNC(=O)CCNC(=O)OC(C)(C)C)nc2)cnc(N)c1-c1ccc(O)cc1 [U53]
pKd: 4.00 to 6.00

molecule: CN1CCC(C(=O)Nc2nc3ccc(NS(=O)(=O)N4CC(F)C4)cc3s2)CC1 [U89]
pKd: < 4.00

molecule: CCc1c(-c2ccc(C(=O)NC)cc2)cnc(N)c1-c1ccc(O)cc1 [U11]
pKd: 4.00 to 6.00

molecule: CCc1c(-c2ccc(C(=O)NCCCNC(=O)OC(C)(C)C)nc2)cnc(N)c1-c1ccc(O)cc1 [U7]
pKd: 4.00 to 6.00

molecule: O=C(Nc1nc2ccc(NS(=O)(=O)c3cccs3)cc2s1)c1cc2n(n1)CCCN(C1CC1)C2 [U98]
pKd: 4.00 to 6.00

molecule: CN1CCN(C(=O)Nc2nc3ccc(NS(=O)(=O)c4cccs4)cc3s2)CC1=O [U123]
pKd: < 4.00

molecule: CN1CCCn2nc(C(=O)Nc3nc4ccc(NS(=O)(=O)c5ccccn5)cc4s3)cc2C1 [U104]
pKd: 4.00 to 6.00

molecule: C[C@H](CC(=O)N1CCC(O)(Cn2cnc3c(-c4ccc(CNC(=O)OC(C)(C)C)cc4)n(C)nc3c2=O)CC1)c1ccccc1 [U14]
pKd: > 6.00

molecule: O=C(O)c1ccnc(Nc2nc3ccc(NS(=O)(=O)c4cccs4)cc3s2)n1 [U85]
pKd: < 4.00

molecule: NCc1cc(Nc2nc3ccc(NS(=O)(=O)c4cn5c(n4)CCC5)cc3s2)ncn1 [U100]
pKd: 4.00 to 6.00

molecule: CCc1c(-c2ccc(C(=O)NC)nc2)cnc(NCCN)c1-c1ccc(O)cc1 [U62]
pKd: > 6.00

molecule: CN1CCCn2nc(C(=O)Nc3nc4ccc(N(C5CCNC5)S(=O)(=O)c5cccs5)cc4s3)cc2C1 (centres unmarked) [U120]
pKd: 4.00 to 6.00

molecule: CCc1c(-c2ccc(C(=O)NC)nc2)cnc(CNC(=O)OC(C)(C)C)c1-c1ccc(O)cc1 [U47]
pKd: 4.00 to 6.00

molecule: CN1CCC(NC(=O)c2nc3ccc(NS(=O)(=O)c4cccs4)cc3s2)CC1 [U92]
pKd: < 4.00
